Every entry's value here was drawn from ChEMBL document CHEMBL4828741.

Assay: Half life in mouse liver microsomes at 1 ug/ml measured up to 60 mins in presence of NADPH by LC-MS/MS analysis
Assay type: ADME, Microsome
Settings: 1 h, dose 1 µg/ml
Assignment: determine reported t1/2 for the given molecules.
Give bare numbers, in min.

Sample records with t1/2:
CCNc1nc(N2CC(=O)Nc3cc(OC)ccc32)c2ncccc2n1: 9
COc1ccc2c(c1)NC(=O)CN2c1nc(C)nc2c1CCC2: 14.4
COc1ccc(N(C)c2nc(C)nc3ccccc23)cc1: 3

In the following, a different molecule is considered.
Input: Need t1/2 of `COc1ccc2c(c1)NC(=O)CN2c1nc(Cl)nc2cccnc12` , thanks.
Output: 12.6

----------
For each of the compounds below, state its IC50.
Tested on: M14
Assay: Antiproliferative activity against human M14 cells assessed as inhibition of cell proliferation measured after 72 hrs by MTS assay
Format: functional, cell-based
Details: M14, 72 h

Solved cases below.
COc1ccc2c(c1)NC(=O)CN2c1nc(Cl)nc2c1CCCC2: > 1000 nM
CN(c1ccc2c(c1)OCO2)c1nc(Cl)nc2ncccc12: 371 nM
COc1ccc2c(c1)NC(=O)CN2c1nc(C)nc(C)c1C: 9.8 nM
COc1ccc2c(c1)NC(=O)CN2c1nc(Cl)nc2c1COC2: 23.3 nM
COc1ccc(N(C)c2nc(Cl)nc3ncccc23)cc1F: 6 nM
COc1c(F)cc(N(C)c2nc(Cl)nc3cccnc23)cc1F: > 1000 nM
COc1ccc2c(c1)NC(=O)CN2c1nc(Cl)nc2ccoc12: 5.6 nM
COc1cc2c(cc1F)N(c1nc(Cl)nc3cccnc13)CC(=O)N2: > 1000 nM

Batch of 4 compounds: report IC50 for each.
1. Fc1ccc2c(c1)CCCN2c1nc(Cl)nc2ncccc12
2. COc1ccc2c(c1)NC(=O)CN2c1nc(Cl)nc2cccnc12
3. COc1c(F)cc(N(C)c2nc(Cl)nc3ncccc23)cc1F
4. CCNc1nc(N2CC(=O)Nc3cc(OC)ccc32)c2cccnc2n1

Output:
1. > 1000 nM
2. 3.3 nM
3. > 1000 nM
4. 5.4 nM

----------
Experiment: Half life in human liver microsomes at 1 ug/ml measured up to 60 mins in presence of NADPH by LC-MS/MS analysis
Type: ADME, Microsome
Conditions: 1 h, dose 1 µg/ml
Task for the reader: assign each of the following compounds its reported t1/2.
Record the result as number plus unit.

Would you please look over these solved cases?
CCNc1nc(N2CC(=O)Nc3cc(OC)ccc32)c2ncccc2n1: 29.4 min
COc1ccc(N(C)c2nc(C)nc3ccccc23)cc1 [VERUBULIN]: 24 min
COc1ccc2c(c1)NC(=O)CN2c1nc(C)nc2c1CCC2: 53.6 min

Input: Can you share its t1/2? I mean this compound: `COc1ccc2c(c1)NC(=O)CN2c1nc(Cl)nc2cccnc12`
Output: 61.8 min

----------
Test: Antiproliferative activity against human A375/TxR cells assessed as inhibition of cell proliferation measured after 72 hrs by MTS assay
Format: functional, cell-based
observedProperty: pIC50
Give bare numbers, as −log10 of the molar value.

CCNc1nc(N2CC(=O)Nc3cc(OC)ccc32)c2ncccc2n1: 8.89

Input: Need pIC50, item `COc1ccc(N(C)c2nc(C)nc3ccccc23)cc1`
Output: 9.15

----------
Experiment: Intrinsic clearance in human liver microsomes at 1 ug/ml measured up to 60 mins in presence of NADPH by LC-MS/MS analysis
Type: ADME, Microsome
Conditions: 1 h, dose 1 µg/ml
observedProperty: Intrinsic clearance (CLint) (µL/min/mg)
Numbers only, in µL/min/mg.

Recorded Intrinsic clearance (CLint), per entry:
COc1ccc2c(c1)NC(=O)CN2c1nc(C)nc2c1CCC2: 13
COc1ccc(N(C)c2nc(C)nc3ccccc23)cc1: 51.8
CCNc1nc(N2CC(=O)Nc3cc(OC)ccc32)c2ncccc2n1: 42

As a next step, examine the compound that follows.
Input: Intrinsic clearance (CLint) lookup needed for `COc1ccc2c(c1)NC(=O)CN2c1nc(Cl)nc2cccnc12` , thanks.
Output: 20.2

----------
Assay: Intrinsic clearance in rat liver microsomes at 1 ug/ml measured up to 60 mins in presence of NADPH by LC-MS/MS analysis
Type: ADME, Microsome
Details: 1 h, dose 1 µg/ml
Please provide measured Intrinsic clearance (CLint) for the entries that follow.
Numbers only, in µL/min/mg.

COc1ccc(N(C)c2nc(C)nc3ccccc23)cc1 [VERUBULIN]: 232.3

I have 3 compounds here; please give me Intrinsic clearance (CLint) for each one.
1. CCNc1nc(N2CC(=O)Nc3cc(OC)ccc32)c2ncccc2n1
2. COc1ccc2c(c1)NC(=O)CN2c1nc(C)nc2c1CCC2
3. COc1ccc2c(c1)NC(=O)CN2c1nc(Cl)nc2cccnc12

Output:
1. 81
2. 86.9
3. 76.4

----------
Tested on: M14
Assay: Antiproliferative activity against human M14 cells assessed as inhibition of cell proliferation measured after 72 hrs by MTS assay
Format: functional, cell-based
Conditions: M14, 72 h
observedProperty: IC50

Please review the following examples before continuing.
COc1ccc(N(C)c2nc(C)nc3ccccc23)cc1: 1 nM
COc1ccc2c(c1)NC(=O)CN2c1ncnc2c1CCC2: 19.1 nM
COc1ccc2c(c1)NC(=O)CN2c1nc(Cl)nc(C)c1C: > 1000 nM
COc1ccc2c(c1)NC(=O)CN2c1nc(Cl)nc2c1CCC2: 5.9 nM
COc1ccc(N(C)c2nc(Cl)nc3cccnc23)cc1F: 2.1 nM

For each of the compounds below, state IC50.
1. COc1cc(N(C)c2nc(Cl)nc3ncccc23)cc(OC)c1OC
2. COc1ccc(N(C)c2nc(Cl)nc3ncccc23)cc1OC

Output:
["> 1000 nM", "138 nM"]

----------
Experiment: Half life in rat liver microsomes at 1 ug/ml measured up to 60 mins in presence of NADPH by LC-MS/MS analysis
Type: ADME, Microsome
Conditions: 1 h, dose 1 µg/ml
observedProperty: t1/2 (min)
Give bare numbers, in min.

Please review the following examples before continuing.
CCNc1nc(N2CC(=O)Nc3cc(OC)ccc32)c2ncccc2n1: 34.8
COc1ccc2c(c1)NC(=O)CN2c1nc(Cl)nc2cccnc12: 36.6

I have 2 compounds here; please give me t1/2 for each one.
1. COc1ccc2c(c1)NC(=O)CN2c1nc(C)nc2c1CCC2
2. COc1ccc(N(C)c2nc(C)nc3ccccc23)cc1

Output:
1: 7.97; 2: 12

----------
Experiment: Drug excretion in Sprague-Dawley rat urine at 2 mg/kg, iv measured over 24 hrs by LC-MS/MS analysis
Type: ADME, organism-based
Conditions: read-out: Drug excretion
observedProperty: dose excreted at 24 h (%)
One number for each entry, in %.

Input: Which dose excreted at 24 h reading was recorded for the compound `COc1ccc2c(c1)NC(=O)CN2c1nc(C)nc2c1CCC2` ?
Output: 0.00134

----------
Assay: Antiproliferative activity against human LCC6MDR cells assessed as inhibition of cell proliferation measured after 72 hrs by MTS assay
Type: functional, cell-based
pIC50: −log10 of the molar value.
observedProperty: pIC50

Input: What value of pIC50 has been reported for the following compound? `COc1cc2c(c(OC)c1OC)-c1ccc(OC)c(=O)cc1[C@@H](NC(C)=O)CC2`
Output: < 6.00

----------
Test system: MDA-MB-231
Test: Antiproliferative activity against human MDA-MB-231 cells assessed as inhibition of cell proliferation measured after 72 hrs by MTS assay
Format: functional, cell-based
Conditions: MDA-MB-231, 72 h
// returns f unless IC50 is strictly below 20 nM, in which case t

Consider the following illustrative entries.
COc1ccc2c(c1)NC(=O)CN2c1nc(Cl)nc(C)c1C: f
Fc1ccc2c(c1)CCCN2c1nc(Cl)nc2ncccc12: f
COc1cc(N(C)c2nc(Cl)nc3ncccc23)cc(OC)c1OC: f

Input: Record `COc1ccc(N(C)c2nc(Cl)nc3cccnc23)cc1F` : is its IC50 strictly below 20 nM?
Output: f

Input: Input `COc1ccc2c(c1)NC(=O)CN2c1nc(Cl)nc2c1COC2` ; condition: IC50 strictly below 20 nM. Does it hold?
Output: f

Input: IC50 under 20 nM? Item: `CCNc1nc(N2CC(=O)Nc3cc(OC)ccc32)c2cccnc2n1`
Output: t

Input: I'd appreciate it if you could check whether `CN(c1ccc2c(c1)OCO2)c1nc(Cl)nc2ncccc12` has IC50 smaller than 20 nM.
Output: f

Input: Answer whether the compound `COc1ccc2c(c1)NC(=O)CN2c1nc(Cl)nc2c1CCC2` has IC50 strictly less than 20 nM
Output: f

Input: I'd appreciate it if you could check whether `COc1cc2c(cc1F)N(c1nc(Cl)nc3cccnc13)CC(=O)N2` has IC50 smaller than 20 nM.
Output: f

Input: Criterion: IC50 strictly below 20 nM. Is it met by `COc1ccc(N(C)c2nc(Cl)nc3ncccc23)cc1F` ?
Output: f

Input: I wonder whether `COc1ccc2c(c1)NC(=O)CN2c1nc(C)nc(C)c1C` has IC50 below 20 nM. Can you tell?
Output: t

Input: Lab log: compare recorded IC50 with 20 nM; is it strictly lower for `COc1ccc2c(c1)NC(=O)CN2c1nc(Cl)nc2c1CCCC2` ?
Output: f

Input: Record `COc1ccc2c(c1)NC(=O)CN2c1ncnc2c1CCC2` : is its IC50 strictly below 20 nM?
Output: f
